Molecular target: RORgT (Homo sapiens, UniProt P51449)
Construct: Gal4 (fusion partner); expressed in transfected cells; host or cells: engineered Jurkat cells (Jurkat pEx/Gal/hRORγ CLBD/HYG pG5luc/blast)
Test: RORgT Gal4 Luciferase Reporter Gene Assay
Assay type: cell-based
Settings: engineered Jurkat cells overexpressing RORgT (LBD or full length) with Gal4 Luc reporter; 18 hours at 37° C.; 40 μM to 0.67 nM; read-out: RORg_GAL4 EC50
measurement_type: pEC50
// pEC50 here means minus log10 of the molar concentration (mol/L)

Just so you know, measured pEC50 for COc1ccc(Oc2c(Cl)cc(NC(=O)Cc3cncc(S(C)(=O)=O)c3)cc2Cl)cc1C(C)C [Example 242] came out at 7.40

Lookup result for COc1ccc(Oc2c(Cl)ccc(CNC(=O)Cc3ccc(S(C)(=O)=O)cc3)c2Cl)cc1C(C)C [Example 54] ; measured pEC50: 7.47

The value of pEC50 measured for the compound COc1ccc(Oc2c(Cl)ccc(CNC(=O)COC3CCN(S(C)(=O)=O)CC3)c2Cl)cc1C(C)C [Example 188] turned out to be 6.42

Please fill in: pEC50 reported for CCS(=O)(=O)N1CCC(CNC(=O)c2ccc(Cl)c(Oc3ccc(OC)c(C(C)C)c3)c2Cl)CC1 [Example 94] = 7.59

The recorded pEC50 for entry CCCS(=O)(=O)Nc1cc(Cl)c(Oc2ccc(OC)c(C(C)C)c2)c(Cl)c1 [Example 303] equals 6.07

pEC50 in this record for COc1ncc(Oc2c(Cl)ccc(C(=O)NCC3CCN(S(C)(=O)=O)CC3)c2Cl)cc1C(C)(C)F [Example 153] : 6.71

GET /value?item= CC(C)(F)c1cc(F)cc(Oc2c(Cl)ccc(C(=O)NCc3ccc(S(N)(=O)=O)cc3)c2Cl)c1 [Example 337] &field=pEC50 returns 7.82

---

Target: RORgT (Homo sapiens)
Construct: Gal4 (fusion partner); expressed in transfected cells; host or cells: engineered Jurkat cells (Jurkat pEx/Gal/hRORγ CLBD/HYG pG5luc/blast)
Sequence (P51449 267-516): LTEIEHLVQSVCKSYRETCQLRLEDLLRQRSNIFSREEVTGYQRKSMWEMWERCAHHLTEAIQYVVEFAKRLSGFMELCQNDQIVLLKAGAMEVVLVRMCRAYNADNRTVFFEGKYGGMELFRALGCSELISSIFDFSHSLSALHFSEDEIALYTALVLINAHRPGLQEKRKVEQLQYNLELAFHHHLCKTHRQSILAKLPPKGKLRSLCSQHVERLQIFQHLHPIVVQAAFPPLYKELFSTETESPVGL
Assay: RORgT Gal4 Luciferase Reporter Gene Assay
Assay type: cell-based
Details: engineered Jurkat cells overexpressing RORgT (LBD or full length) with Gal4 Luc reporter; 18 hours at 37° C.; 40 μM to 0.67 nM; read-out: RORg_GAL4 EC50
Experimental: The compound and the cells were incubated for 18 hours at 37° C. in a cell culture incubator. Cells were then lysed with 15 uL of Steady-Glo Luciferase Assay reagent (Promega EZ550), followed by centrifuging the assay plates at 1500 RPM for 1 minute. Subsequently, the plates were read on the Envision (PerkinElmer). […]
measurement_type: pEC50
pEC50 is a log-scale quantity: -log10 of the concentration expressed in molar.

// field: pEC50; key: CC(C)c1cc(F)cc(Oc2c(Cl)ccc(C(=O)NCc3ccc(S(N)(=O)=O)cc3)c2Cl)c1 [Example 16] ; value = 8.21

Lookup result for COc1ccc(Oc2c(Cl)cc(NC(=O)[C@H]3CC[C@@H](C(=O)OC)CC3)cc2Cl)cc1C(C)C [Example 339] ; measured pEC50: 6.01

Per the record, COc1ccc(Oc2c(Cl)cc(NC(=O)Cc3ccnc(N)c3)cc2Cl)cc1C(C)C [Example 238] has pEC50 of 6.12

# pEC50 of CCS(=O)(=O)N[C@@H]1CCCN(CC(=O)Nc2cc(Cl)c(Oc3ccc(OC)c(C(C)C)c3)c(Cl)c2)C1 [Example 167] = 6.61

Field pEC50 (entry COc1ccc(Oc2c(Cl)ccc(C(=O)NCC3CCN(S(=O)(=O)C(C)C)CC3)c2Cl)cc1C(C)C [Example 93] ) reads 6.78

Documented pEC50 of COc1ncc(Oc2c(Cl)cc(NC(=O)CC3CCN(S(N)(=O)=O)CC3)cc2Cl)cc1C(C)C [Example 121] : 7.89

// sample COCCNC(=O)c1ccc(Cl)c(Oc2ccc(OC)c(C(C)C)c2)c1Cl [Example 183] , its pEC50 was 6.55

Entry COc1ccc(Oc2c(Cl)ccc(NC(=O)CC3CN(S(C)(=O)=O)C3)c2Cl)cc1C(C)C [Example 58] , pEC50 reported as 6.42

The compound CC(C)c1cc(F)cc(Oc2c(Cl)ccc(C(=O)NCc3ccc(S(C)(=O)=O)cc3)c2Cl)c1 [Example 122] showed pEC50 equal to 8.44

Notebook: CC(C)c1cc(Oc2c(Cl)cc(NC(=O)Cc3cccnc3)cc2Cl)ccc1C1CC1 [Example 324] , pEC50 read as 6.67

Query COc1ccc(Oc2c(Cl)ccc(C(=O)NCC3CCN(S(N)(=O)=O)CC3)c2Cl)cc1C(C)C [Example 96] yields pEC50 of 7.89

Given item COc1ccc(Oc2c(Cl)cc(NC(=O)CC3CCN(S(=O)(=O)C4CC4)CC3)cc2Cl)cc1C(C)C [Example 320] , the value recorded as its pEC50 is 6.75

Form: compound = CC(C)c1cc(Oc2c(Cl)cc(NC(=O)CC3CCN(S(C)(=O)=O)CC3)cc2Cl)ccc1OC(F)(F)F [Example 260] ; pEC50 = 6.99
